Assay: Cytotoxicity (CC50) in the other respiratory virus assays
PARAMETER_MEASURED: CC50

# CC50 (molecule: CC(=O)Oc1ccccc1C(=O)Nc1ncc([N+](=O)[O-])s1 [Compound 1, nitazoxanide] ) is > 50 µg/mL

---

Tested on: H1N1 A/PR/8/34 (PR8) virus
Assay: microbe, parasite or virus in culture
Type: cell-based, influenza A virus
Conditions: Influenza A virus, MDCK, 24 h; read-out: EC50 of NTZ in the experiments with oseltamivir (molar equivalent)
PARAMETER_MEASURED: pEC50
Kindly note that pEC50 refers to -log10 of the concentration in mol/L and answer with the value alone.

# pEC50 (compound: CC(=O)Oc1ccccc1C(=O)Nc1ncc([N+](=O)[O-])s1 [Compound 1, nitazoxanide] ) is 5.48

Hey, just so you know, these numbers are from patent US11850237B2.
